target: HEK-293 cells expressing human recombinant adenosine A2A receptor (Homo sapiens (Human), UniProt P29274); assay: cAMP assay, Assay 2 (Eu-cAMP tracer / ULight-anti-cAMP); format: cell-based; conditions: Assay 2
Sequence (P29274 whole entry): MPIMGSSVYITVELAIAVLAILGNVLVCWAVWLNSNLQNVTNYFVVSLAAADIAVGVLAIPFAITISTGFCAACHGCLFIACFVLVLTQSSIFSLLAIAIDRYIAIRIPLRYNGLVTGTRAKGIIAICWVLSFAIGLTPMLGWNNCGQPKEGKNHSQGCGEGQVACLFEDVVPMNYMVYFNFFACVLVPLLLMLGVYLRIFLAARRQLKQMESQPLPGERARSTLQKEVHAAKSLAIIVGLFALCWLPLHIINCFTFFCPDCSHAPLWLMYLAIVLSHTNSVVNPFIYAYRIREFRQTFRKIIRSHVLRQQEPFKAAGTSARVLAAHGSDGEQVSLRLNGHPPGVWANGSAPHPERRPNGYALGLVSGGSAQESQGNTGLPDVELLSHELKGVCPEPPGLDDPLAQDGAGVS
measurement type: IC50 (µM)

Field: example entries. Status: answers known.
- compound structure: "CCn1ccc(-c2nc(N)cnc2-c2cc(Cl)c3ncccc3c2)n1"
  measurement type: "IC50"
  scale unit: "µM"
  test value: 1.93
- compound structure: "Nc1cnc(-c2cc(Cl)c3ncccc3c2)c(-c2ccn(C3CC3)n2)n1"
  measurement type: "IC50"
  scale unit: "µM"
  test value: 8.48
- compound structure: "Cn1ccc(-c2nc(N)c(Br)nc2-c2cc(Cl)c3ncccc3c2)n1"
  measurement type: "IC50"
  scale unit: "µM"
  test value: 0.0125
- compound structure: "Cn1ccc(-c2nc(N)cnc2-c2cc(Cl)c3ncccc3c2)n1"
  measurement type: "IC50"
  scale unit: "µM"
  test value: 0.0479
- compound structure: "Cc1ccn(-c2nc(N)c(C#N)nc2-c2ccc3ncccc3c2)n1"
  measurement type: "IC50"
  scale unit: "µM"
  test value: 0.0357

(P) Cc1ccn(-c2nc(N)c(O)nc2-c2cc(Cl)c3ncccc3c2)n1
(Q) Nc1cnc(-c2cc(Cl)c3ncccc3c2)c(-n2ccc(C(F)(F)F)n2)n1
IN: Please state the entry with greater IC50 among P and Q . Kindly state the label of the option you pick.
OUT: P

(A) Cc1ccn(-c2nc(N)cnc2-c2cc(C)c3ncccc3c2)n1
(B) Cc1ccn(-c2nc(N)cnc2-c2cc(Cl)c3[nH]ncc3c2)n1
(C) Cc1cnc(-c2nc(N)cnc2-c2cc(Cl)c3ncccc3c2)s1
(D) Cn1ccc(-c2nc(N)cnc2-c2ccc3[nH]ncc3c2)n1
(E) Cc1cccc(CNC(=O)c2nc(-c3ccc4ncccc4c3)c(-c3ccccc3)nc2N)n1
IN: Rank items: key IC50, increasing. Put the labels in the requested order and list them out.
OUT: E, B, A, C, D
(E: 0.012 µM, B: 0.033 µM, A: 0.13 µM, C: 0.563 µM, D: 1.25 µM)

(A) Cn1ccc(-c2nc(N)cnc2-c2cc(Cl)c3ncsc3c2)n1
(B) Nc1cnc(-c2ccc3c(=O)[nH]ccc3c2)c(-c2ccccc2)n1
IN: Which entry has a larger number for IC50, A or B ? Please reply using the label of the selected record.
OUT: B
(B: 0.173 µM, A: 0.096 µM)
